Study Target: PTPN3, P26045
Sequence (P26045 505-587): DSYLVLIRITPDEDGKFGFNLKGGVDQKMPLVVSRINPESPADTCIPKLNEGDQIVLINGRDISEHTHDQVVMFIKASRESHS
Experiment Description: holdup assay
Design: key: below the threshold = too weak to quantify, mostly under pKd 3.1 to 4
Condition Parameters: plain residues with an end cap or a label only (N-terminal biotin on a linker: ahx)
Classify as follows. Reported pKd greater than or equal to 4: Y. Reported pKd below: N.

See these solved cases before continuing.
Exam item: Say whether HTHSYIETHV [CNKSR2, Q8WXI2] shows pKd of 4 or more.
Marked response: Y

Exam item: Say whether QPRTWLQSPV [RTKN, Q9BST9] shows pKd of 4 or more.
Marked response: N

Exam item: Say whether QDEKVKESYV [ABCA1, O95477] shows pKd of 4 or more.
Marked response: Y

Others:
Exam item: Say whether EKQAKGDTEF [CACYBP, Q9HB71] shows pKd of 4 or more.
Marked response: Y

Exam item: Say whether TQKFRASTAL [FRMPD1, Q5SYB0] shows pKd of 4 or more.
Marked response: Y

Exam item: Say whether QNTDDVQTSF [ACE2, Q9BYF1] shows pKd of 4 or more.
Marked response: Y
